// provenance: patent US6500821B1

# System: s.c. pentetrazole
# experimentSummary: Anticonvulsive action, s.c. pentetrazole (PTZ), mouse i.p.
# Assay type: in vivo
# assayContext: ip, dose 300 mg/kg, read-out: Action, % of the protected animals
measure: responders at 300 mg/kg (%)
Numeric answer only, unit % assumed.

Consider the compound shown here: COc1ccc(N2CC(N3CCOCC3)=CC2=O)cc1 What is its recorded responders at 300 mg/kg?
80

Request: Cc1cccc(N2CC(N3CCOCC3)=CC2=O)c1
100

Another compound: COc1cc(N2CC(N3CCOCC3)=CC2=O)cc(OC)c1OC
66

Repeat with O=C1C=C(N2CCCCC2)CN1c1ccc(F)cc1
0
